# system: T1, recombinant monomeric mouse ENTPD2 extracellular domain (residues 29-462) with His6 tag (mouse, UniProt O55026 29-462)
# T1 sequence: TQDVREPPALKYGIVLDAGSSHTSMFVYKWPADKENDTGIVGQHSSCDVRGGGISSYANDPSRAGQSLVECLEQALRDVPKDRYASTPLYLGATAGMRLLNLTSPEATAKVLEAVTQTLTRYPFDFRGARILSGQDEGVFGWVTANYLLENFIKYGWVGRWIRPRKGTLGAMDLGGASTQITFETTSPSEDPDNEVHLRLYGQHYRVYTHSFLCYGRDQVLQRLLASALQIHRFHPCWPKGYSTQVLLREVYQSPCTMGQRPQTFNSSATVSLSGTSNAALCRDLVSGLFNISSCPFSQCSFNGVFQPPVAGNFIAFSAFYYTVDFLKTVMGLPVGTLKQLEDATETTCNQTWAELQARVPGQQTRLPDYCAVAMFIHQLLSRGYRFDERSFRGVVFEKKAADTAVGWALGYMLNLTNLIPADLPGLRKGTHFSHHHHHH
# method description: SPR Biacore
quantity measured: binding result

binder | readout value
ANTI-HUMAN ENTPD2 MAB8 (antibody, human IgG1, lambda, V domains shown, also called Anti-ENTPD2 mAb8) VH: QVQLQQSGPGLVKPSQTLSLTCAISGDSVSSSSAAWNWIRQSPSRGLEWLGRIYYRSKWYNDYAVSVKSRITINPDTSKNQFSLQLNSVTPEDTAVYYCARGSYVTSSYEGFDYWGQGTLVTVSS VL: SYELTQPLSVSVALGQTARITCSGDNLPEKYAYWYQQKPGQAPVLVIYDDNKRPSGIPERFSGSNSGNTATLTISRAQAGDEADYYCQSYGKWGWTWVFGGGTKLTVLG | binds
ANTI-HUMAN ENTPD2 MAB10 (antibody, human IgG1, lambda, V domains shown, also called Anti-ENTPD2 mAb10) VH: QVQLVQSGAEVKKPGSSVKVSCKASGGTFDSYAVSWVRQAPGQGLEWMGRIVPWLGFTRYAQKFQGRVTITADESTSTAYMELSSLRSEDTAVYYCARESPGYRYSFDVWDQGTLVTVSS VL: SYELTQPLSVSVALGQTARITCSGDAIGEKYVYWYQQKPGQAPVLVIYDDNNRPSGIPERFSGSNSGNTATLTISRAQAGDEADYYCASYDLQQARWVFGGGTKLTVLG | binds
ANTI-HUMAN ENTPD2 MAB6 (antibody, human IgG1, kappa, V domains shown, humanized and optimized from mAb16; human IgG1, kappa; also called Anti-ENTPD2 mAb6) VH: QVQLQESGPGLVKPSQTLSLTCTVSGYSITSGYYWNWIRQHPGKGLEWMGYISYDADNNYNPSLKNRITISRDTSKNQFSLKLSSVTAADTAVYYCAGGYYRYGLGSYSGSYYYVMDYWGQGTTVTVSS VL: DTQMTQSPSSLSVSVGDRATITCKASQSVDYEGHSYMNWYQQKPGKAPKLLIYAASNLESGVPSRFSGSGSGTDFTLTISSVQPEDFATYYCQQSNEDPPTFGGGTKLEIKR | no binding
ANTI-HUMAN ENTPD2 MAB3 (antibody, human IgG1, kappa, V domains shown, humanized from mAb17; human IgG1, kappa; also called Anti-ENTPD2 mAb3) VH: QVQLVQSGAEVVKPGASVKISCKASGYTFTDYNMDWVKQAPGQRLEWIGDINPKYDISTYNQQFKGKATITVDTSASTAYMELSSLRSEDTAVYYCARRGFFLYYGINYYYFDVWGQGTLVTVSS VL: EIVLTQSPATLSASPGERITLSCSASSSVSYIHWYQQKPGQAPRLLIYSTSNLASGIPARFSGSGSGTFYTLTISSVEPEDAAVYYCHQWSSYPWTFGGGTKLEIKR | no binding
ANTI-HUMAN ENTPD2 MAB4 (antibody, human IgG1, kappa, V domains shown, humanized and optimized from mAb16; human IgG1, kappa; also called Anti-ENTPD2 mAb4) VH: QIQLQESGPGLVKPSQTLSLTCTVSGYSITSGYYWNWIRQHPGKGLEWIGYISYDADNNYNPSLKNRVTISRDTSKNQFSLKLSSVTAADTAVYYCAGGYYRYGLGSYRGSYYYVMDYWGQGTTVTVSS VL: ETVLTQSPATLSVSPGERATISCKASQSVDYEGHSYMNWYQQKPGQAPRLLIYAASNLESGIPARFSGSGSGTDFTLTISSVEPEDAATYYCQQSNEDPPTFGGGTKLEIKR | no binding
ANTI-HUMAN ENTPD2 MAB5 (antibody, human IgG1, kappa, V domains shown, humanized and optimized from mAb16; human IgG1, kappa; also called Anti-ENTPD2 mAb5) VH: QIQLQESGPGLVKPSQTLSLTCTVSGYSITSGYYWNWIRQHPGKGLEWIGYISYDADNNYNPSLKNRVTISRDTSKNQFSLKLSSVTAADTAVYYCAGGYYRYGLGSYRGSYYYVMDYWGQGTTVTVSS VL: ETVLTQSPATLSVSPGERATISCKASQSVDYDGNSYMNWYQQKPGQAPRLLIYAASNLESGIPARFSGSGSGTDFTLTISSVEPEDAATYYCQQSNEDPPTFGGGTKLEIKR | no binding
